Reported bioavailability values are given for each entry in this list.
experiment: Oral bioavailability in Wistar rat at 2 mg/kg; format: ADME, organism-based; conditions: Wistar, in vivo
Quick note: give the figure in %, leave out the unit.

Q: Fill in the blank: the reported bioavailability of COc1ccc(F)c(-c2ccc([C@@H]3CCc4ccc([C@H](C5CC5)[C@H](C)C(=O)O)cc4O3)cc2)c1 is ____.
Ans: 50

Q: Fill in the blank: the reported bioavailability of COc1ccc(F)c(-c2ccc(C3CCc4ccc([C@H](C5CC5)[C@H](C)C(=O)O)cc4O3)nc2)c1 (stereo in doubt; 29) is ____.
Ans: 50

Q: Fill in the blank: the reported bioavailability of COc1ccc(F)c(-c2ccc([C@H]3CCc4ccc([C@H](C5CC5)[C@H](C)C(=O)O)cc4O3)cc2)c1 is ____.
Ans: 77
